// reported EC50 per item
Target: CDK7 (Homo sapiens, UniProt P50613)
Construct: Full-length kinases were obtained as plasmids cloned in frame with a terminal NanoLuc-fusion
Sequence (P50613 whole entry, the tested form may be a part): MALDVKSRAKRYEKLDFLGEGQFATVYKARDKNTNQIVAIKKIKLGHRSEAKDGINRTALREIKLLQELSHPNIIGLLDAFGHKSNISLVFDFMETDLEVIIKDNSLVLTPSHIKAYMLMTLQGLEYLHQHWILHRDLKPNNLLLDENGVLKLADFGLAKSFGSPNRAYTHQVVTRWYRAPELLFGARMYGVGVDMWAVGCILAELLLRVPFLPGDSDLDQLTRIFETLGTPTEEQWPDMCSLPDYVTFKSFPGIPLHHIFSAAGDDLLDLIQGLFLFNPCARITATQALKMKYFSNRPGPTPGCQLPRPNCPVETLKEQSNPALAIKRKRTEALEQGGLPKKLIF
Test: NanoBRET
Conditions: read-out: NanoBRET EC50 ± SEM CDK7
Procedure: The assay was performed as described previously. In brief: Full-length kinases were obtained as plasmids cloned in frame with a terminal NanoLuc-fusion (Promega, Madison, WI, USA), as specified in table (Table S6). […] Serially diluted inhibitor and NanoBRET Kinase Tracer (Promega) at a concentration determined previously as the KD,app (Table S5) were pipetted into white 384-well plates (Greiner 781207) using an Echo acoustic dispenser (Labcyte, San Jose, CA, USA). […]
Write the answer as a number in µM, unit excluded.

CC(C)OC(=O)c1cc(Nc2ccnc(NCc3ccc(NC(=O)OC(C)(C)C)cc3)n2)n[nH]1 [42d] : 1.14

Given item CC(C)(C)OC(=O)Nc1ccc(CNc2nccc(Nc3cc(C(=O)OC(C)(C)C)[nH]n3)n2)cc1 [43d] , the value recorded as its EC50 is 1.46

Given item COC(=O)c1cc(Nc2ccnc(NCc3ccc(NC(=O)OC(C)(C)C)cc3)n2)[nH]n1 [21i] , the value recorded as its EC50 is 10.4

Given item N#CCc1ccc(Nc2nccc(Nc3cc(C4CC4)[nH]n3)n2)cc1 [compound 1, reference compound] , the value recorded as its EC50 is 0.103
